Cited source for all entries: ChEMBL document CHEMBL3988442

biological target: Ubiquitin-activating enzyme e1, putative (Leishmania donovani (strain BPK282A1)) (UniProt E9BSI1); experiment: Leishmania donovani Ubiquitin Activating Enzyme (LdE1); format: functional; design: scale not given: direction of the effect not stated beside the values; details: 30 µM
Sequence (E9BSI1 as listed by the source): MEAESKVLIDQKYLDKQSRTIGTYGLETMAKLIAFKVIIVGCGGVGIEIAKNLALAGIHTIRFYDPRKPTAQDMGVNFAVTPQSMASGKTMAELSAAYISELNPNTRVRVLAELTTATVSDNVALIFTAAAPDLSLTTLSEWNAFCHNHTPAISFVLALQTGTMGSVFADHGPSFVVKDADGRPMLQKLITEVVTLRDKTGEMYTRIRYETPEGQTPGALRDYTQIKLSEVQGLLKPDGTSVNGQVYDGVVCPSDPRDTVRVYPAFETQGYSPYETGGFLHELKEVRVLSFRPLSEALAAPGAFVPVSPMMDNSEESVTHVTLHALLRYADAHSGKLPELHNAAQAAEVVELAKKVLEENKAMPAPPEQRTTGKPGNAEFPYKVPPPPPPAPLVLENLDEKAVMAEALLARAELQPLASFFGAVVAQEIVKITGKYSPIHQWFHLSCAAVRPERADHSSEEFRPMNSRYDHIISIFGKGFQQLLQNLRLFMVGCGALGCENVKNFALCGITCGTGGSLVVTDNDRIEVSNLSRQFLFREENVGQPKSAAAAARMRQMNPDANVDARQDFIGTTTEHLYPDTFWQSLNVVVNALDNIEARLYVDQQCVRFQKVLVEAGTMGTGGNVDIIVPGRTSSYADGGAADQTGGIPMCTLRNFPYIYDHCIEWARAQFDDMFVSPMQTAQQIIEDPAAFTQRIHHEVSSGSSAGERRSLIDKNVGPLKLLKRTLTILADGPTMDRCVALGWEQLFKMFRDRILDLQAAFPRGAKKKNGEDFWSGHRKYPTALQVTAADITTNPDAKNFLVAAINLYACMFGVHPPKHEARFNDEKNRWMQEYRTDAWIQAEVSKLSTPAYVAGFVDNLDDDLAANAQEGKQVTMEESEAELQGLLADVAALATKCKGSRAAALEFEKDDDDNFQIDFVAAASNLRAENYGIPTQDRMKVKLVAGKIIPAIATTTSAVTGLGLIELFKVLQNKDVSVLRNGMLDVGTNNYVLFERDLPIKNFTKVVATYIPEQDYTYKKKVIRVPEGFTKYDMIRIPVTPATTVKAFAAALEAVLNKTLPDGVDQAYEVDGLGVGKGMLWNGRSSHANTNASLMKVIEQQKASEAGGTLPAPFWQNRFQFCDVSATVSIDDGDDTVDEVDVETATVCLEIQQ
Measured potencies and affinities stand elsewhere.
Here the recorded Percent Effect is given for each entry.
TEST READOUT: Percent Effect (%)

[
  {
    "MOLECULE": "Cc1csc(N2CCN(CCc3ccccn3)CC2C)n1 (stereo not drawn)",
    "NUMBER": 8.22
  },
  {
    "MOLECULE": "CCCNCc1cc2c(C)cc(C)cc2n2c(=O)n(C)nc12",
    "NUMBER": 4.05
  },
  {
    "MOLECULE": "Cc1cccc(CN2C(=O)CO[C@@H]3CN(CCO)C[C@H]32)c1",
    "NUMBER": 10.8
  },
  {
    "MOLECULE": "NC(=O)c1cc(C2CCCN(CCc3ccccn3)C2)n[nH]1 (stereo not drawn)",
    "NUMBER": -12.8
  },
  {
    "MOLECULE": "Cc1occc1C(=O)N1CCC2(CCC(C(=O)NCC3CC3)O2)CC1 (stereo not drawn)",
    "NUMBER": 19.5
  },
  {
    "MOLECULE": "Cc1cnn(CC2CCCN2Cc2nnc(Cc3ccccc3)o2)c1 (stereo not drawn)",
    "NUMBER": 10.8
  },
  {
    "MOLECULE": "CCc1n[nH]c(C2CN(C(=O)CCc3cccs3)CCO2)n1 (stereo not drawn)",
    "NUMBER": 11.4
  },
  {
    "MOLECULE": "CN(CC1COc2ccccc2O1)C(=O)NCCCn1cncn1 (stereo not drawn)",
    "NUMBER": 18.4
  }
]
